Target: GST-LXRβ ligand-binding domain (Homo sapiens, UniProt P55055, DUP175-175)
Construct: amino acids 156-461; NP009052
Sequence (P55055 with tags, fused parts or gaps DUP175-175): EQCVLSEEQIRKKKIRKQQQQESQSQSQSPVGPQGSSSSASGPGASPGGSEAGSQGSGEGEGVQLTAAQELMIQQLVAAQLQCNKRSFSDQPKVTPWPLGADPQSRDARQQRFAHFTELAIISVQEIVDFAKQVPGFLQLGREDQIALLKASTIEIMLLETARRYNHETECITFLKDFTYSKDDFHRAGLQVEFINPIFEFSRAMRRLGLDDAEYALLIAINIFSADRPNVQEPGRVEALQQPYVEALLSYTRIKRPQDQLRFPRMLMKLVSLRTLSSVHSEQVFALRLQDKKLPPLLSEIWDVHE
Assay: TR-FRETβ activity assay (LXRβ-LBD / NCoA3 coactivator peptide, prestimulated with 24(S)-25-epoxycholesterol)
Settings: 1 μM 24(S)-25-epoxycholesterol as prestimulating agonist; read-out: FRETβ activity range (EC50)
Measured EC50 accompanies every entry in the list below.

Use the examples below as a reference point.
>>> observedvalue("Cc1cc(C)c(S(=O)(=O)N(Cc2ccc(-c3cccc(C(C)(C)C(=O)O)c3)cc2)Cc2ccc(C(F)(F)F)o2)c(C)c1")
"0.1 to 1 µM"
>>> observedvalue("Cc1cc(C(F)(F)F)oc1CN(Cc1ccc(-c2cccc(C(C)(C)C(=O)O)c2)cc1)S(=O)(=O)c1c(C)ccc2ccccc12")
"< 0.1 µM"
>>> observedvalue("COc1cc(-c2cccc(C(C)(C)C(=O)O)c2)ccc1CN(Cc1ccc(C(F)(F)F)o1)S(=O)(=O)c1c(C)cc(C)cc1C")
"< 0.1 µM"
>>> observedvalue("Cc1cc(C)c(S(=O)(=O)N(Cc2ccc(-c3cccc(CC(=O)O)c3)cc2)C(C)c2ccc(C(F)(F)F)o2)c(C)c1 (stereo not drawn)")
"0.1 to 1 µM"

Which EC50 is listed for COc1cc(-c2ccc(CO)c(C(C)(C)C(=O)[O-])c2)ccc1CN(Cc1ccc(C(F)(F)F)o1)S(=O)(=O)c1c(C)ccc2ccccc12.[Na+] ?
0.1 to 1 µM

Now this one: Cc1cc(C)c(S(=O)(=O)N(Cc2ccc(-c3cccc(S(=O)(=O)CC(=O)O)c3)cc2)Cc2cccc(C(F)(F)F)c2)c(C)c1
1 to 10 µM

* * *

Target: LXRα full length (FL) (Homo sapiens)
Construct: the full length (FL) proteins of LXRα (amino acids 1-447); NP005684
Sequence (Q13133 1-447): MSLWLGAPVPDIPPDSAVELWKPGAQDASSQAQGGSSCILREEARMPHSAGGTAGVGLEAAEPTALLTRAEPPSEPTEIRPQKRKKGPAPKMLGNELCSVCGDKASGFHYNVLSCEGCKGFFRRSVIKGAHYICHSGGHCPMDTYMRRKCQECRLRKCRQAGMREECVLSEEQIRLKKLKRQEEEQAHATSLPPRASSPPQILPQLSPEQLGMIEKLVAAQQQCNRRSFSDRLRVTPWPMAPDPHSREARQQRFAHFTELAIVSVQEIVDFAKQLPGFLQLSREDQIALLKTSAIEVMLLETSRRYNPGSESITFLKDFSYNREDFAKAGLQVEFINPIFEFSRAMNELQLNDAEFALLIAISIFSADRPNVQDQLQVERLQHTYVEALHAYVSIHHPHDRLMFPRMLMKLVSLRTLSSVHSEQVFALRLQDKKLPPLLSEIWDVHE
Assay: LXR Gal4 reporter transient transfection assay (M2H), Gal4α FL
Conditions: HEK293 cells; read-out: M2H Gal4α FL activity range (EC50)
propertyLabel: EC50

Reference set (3 entries):
>>> observedvalue("Cc1cc(C)c(S(=O)(=O)N(Cc2ccc(-c3cccc(S(=O)(=O)C(C)C(=O)O)c3)cc2)Cc2ccc(C(F)(F)F)o2)c(C)c1 (stereo not shown)")
"100 to 1000 nM"
>>> observedvalue("Cc1cc(C)c(S(=O)(=O)N(Cc2ccc(-c3cccc(S(=O)(=O)CC(=O)O)c3)cc2)Cc2cccc(Cl)c2)c(C)c1")
"1000 to 10000 nM"
>>> observedvalue("Cc1cccc(C)c1S(=O)(=O)N(Cc1ccc(-c2cccc(S(=O)(=O)CC(=O)O)c2)cc1)Cc1ccc(C(F)(F)F)o1")
"1000 to 10000 nM"

Shifting focus to the compound that follows.
Recorded EC50 for Cc1cc(C)c(S(=O)(=O)N(Cc2ccc(-c3cccc(S(=O)(=O)CC(=O)O)c3)cc2)Cc2csc(C(F)(F)F)c2)c(C)c1 , please?
1000 to 10000 nM
